- System: SK-MEL-2
- Assay procedure: NCI tumour cell line growth inhibition, 48 h
Active and inactive are the calls of the source. Rule as the data show it: active = GI50 up to about 1.1 µM and inactive = higher.
Assay readout: GI50

# Molecule, GI50
data = [
    ("CC[C@H]1[C@@H](C)C=C[C@@H](C)N1S(=O)(=O)c1ccc(C)cc1", "19.8 µM (inactive)"),
    ("N#CC(c1ccccn1)c1nc2ccccc2[nH]1 (stereo not drawn)", "> 100 µM (inactive)"),
]

Here is the next item to consider.
Recorded GI50 for CSc1nc(Br)nc2ncn(C3CC(Oc4ccc(C)cc4)C(COc4ccc(C)cc4)O3)c12 (stereo not drawn) with SK-MEL-2, please?
> 100 µM (inactive)

###

- Tested on: XF498
- Assay procedure: NCI tumour cell line growth inhibition, 48 h
Activity calls are given as the source filed them. Rule as the data show it: active = GI50 up to about 1.1 µM and inactive = higher.
Hi there, use one of these labels in your reply, thanks! active, inactive

Worked examples follow.
# Molecule, Assay target, Assigned category
data = [
    ("C/C(CC(=O)Nc1ccc(Cl)cc1)=N\\NC(=O)C[n+]1ccccc1", "XF498", "inactive"),
    ("CC12CCC(=O)C[C@H]1CCC(OC=O)C2Br (some centres not stated)", "XF498", "inactive"),
]

Outcome logged for CCOc1ccc(/C(Cl)=C(\C=O)c2ccc(OC)c(OC)c2)cc1OCC in this assay:
inactive

Now the same for Cc1ccccc1NC(=O)C(=O)CC(=O)c1ccc([N+](=O)[O-])cc1
inactive

Now the same for CC(C)[C@H](COC(C)(C)C)/N=C/N1CSc2ccccc21
inactive

Now the same for N#CC(c1ccccn1)c1nc2ccccc2[nH]1 (configuration not stated)
inactive

Now the same for CN(C)CCCCCNc1c2ccccc2nc2cccc([N+](=O)[O-])c12
active

Now the same for CC12CP(=O)(c3ccccc3)CC1C2(Cl)Cl (configuration not stated)
inactive

Now the same for NC1=NN(c2ccccc2)C(=O)C1C(=O)CCC(=O)Nc1cccc(Cl)c1 (configuration not stated)
inactive

Now the same for CSc1nc2c(ncn2C2OC(CO)C(O)C(O)C2O)c(=O)[nH]1 (configuration not stated)
inactive

Now the same for COc1ccc(C(=O)Nc2ccc(S(=O)(=O)NCC(=O)O)cc2)cc1
inactive

Now the same for O=C1C(Cl)C(c2ccccc2O)N1n1cnc2ccccc2c1=O (configuration not stated)
inactive

###

- Test system: KM-20L2
- Assay procedure: NCI tumour cell line growth inhibition, 48 h
Active and inactive are the calls of the source. Rule as the data show it: active = GI50 up to about 1.1 µM and inactive = higher.
Hi there, use one of these labels in your reply, thanks! active, inactive

Worked examples follow.
# Molecule, Assigned category
rows = [
    ("Cc1c(Cl)ccc2[s+]snc12", "inactive"),
    ("CC(=O)OC1CC2OC(Cc3ccccc32)O1 (configuration not stated)", "inactive"),
    ("O=C(/N=C(\\Nc1ccccc1)SCCS/C(=N/C(=O)c1cccs1)Nc1ccccc1)c1cccs1", "inactive"),
    ("CCOc1cccc2sc(N)nc12", "inactive"),
    ("CC(=O)CCC#Cc1ccccc1C(=O)C(C)=[N+]=[N-]", "inactive"),
]

Outcome logged for COc1cc(NS(C)(=O)=O)ccc1Nc1c2ccccc2nc2c1[nH]c1ccc(NC3OC(CO)C(O)C(O)C3O)cc12 (configuration not stated) in this assay:
active

Now the same for O=C1C2=C(CCCCC2)C2CCCCC12O (configuration not stated)
inactive

###

The entries below come with measured GI50 values attached.
- Tested on: HCT-15

# Molecule, Endpoint value
data = [
    ("C[C@H]1C[C@H]2[C@@H]3CCC4=CC(=O)C=C[C@]4(C)C3=CC[C@]2(C)[C@@]1(O)C(=O)CO", "> 100 µM"),
    ("CC1=CC(=O)NP(=O)(Oc2ccc(C)cc2)N1 (centres undefined)", "> 100 µM"),
]

Recorded GI50 for C/C=C/[C@H]1O[C@@](O)([C@@H](C)[C@H](O)[C@H](C)[C@H]2OC(=O)/C(OC)=C/C(C)=C/[C@@H](C)[C@@H](O)[C@@H](CC)[C@@H](O)[C@H](C)C/C(C)=C/C=C/[C@@H]2OC)C[C@H](OC2CC(O)C(O)C(C)O2)[C@@H]1C (some centres undefined) with HCT-15, please?
< 0.0075 µM

Now the same for COC(=O)c1ccc(/C=C2\Cc3ccccc3C2=O)cc1
> 100 µM
